assay.method.text: gradient 5% acetonitrile 3 min, to 50% in 2 min, to 85% in 15 min, held 3 min, 100 µL/min
experimental.context: column: Zorbax Extend-C18 2.1 x 50 mm; eluents: water / acetonitrile, 0.1% formic acid
Define the label as Y when RP-LC retention time is strictly less than 900 s and as N in all remaining cases.

Worked examples follow.
1. O=C(COc1ccc2c(c1)C(=O)CC2)NCCC1=CCCCC1 : Y
2. Cc1oc2ccn(Cc3ccc(F)cc3)c(=O)c2c1C(=O)NCC1CCCO1 (centres undefined) : Y
3. CC(=O)N1CCc2cc(N3CC(C(=O)Nc4ccccc4C(F)(F)F)CC3=O)ccc21 (centres undefined) : Y
4. COc1ccccc1Oc1c(C)oc2cc(OCC(=O)N[C@H](C)C(=O)O)ccc2c1=O : Y
5. Cc1ccc(-c2nc(C3CC(=O)N(c4ccc(F)c(Cl)c4)C3)no2)c(C)c1 (centres undefined) : N

I wonder whether `Cc1ccc(Cc2nc(-c3ccc(S(=O)(=O)N4CCC(C(=O)N5CCCC5)CC4)cc3)no2)cc1` has RP-LC retention time below 900 s. Can you tell?
N

Does this compound meet the criterion RP-LC retention time < 900 s? `CC(C)Cn1cc(CCNS(=O)(=O)c2ccc(Cl)s2)c2cccnc21`
N

# strict comparison: is reported RP-LC retention time < 900 s? input = `COc1ccc(NC(=O)c2cc(C(C)(C)C)n3nccc3n2)cc1OC`
N

====

assay.method.text: gradient 5% acetonitrile 3 min, to 50% in 2 min, to 85% in 15 min, held 3 min, 100 µL/min
experimental.context: column: Zorbax Extend-C18 2.1 x 50 mm; eluents: water / acetonitrile, 0.1% formic acid
Please go through the items and note down their RP-LC retention time.
Answers are plain numbers, in s.

1) Cc1cccc(NC(=O)C(=O)NCCN2CCN(c3ccc(F)cc3)CC2)c1C : 584
2) CN1C(=O)CCc2cc(NC(=O)c3ccnn3C)ccc21 : 645
3) Cc1cnc(NC(=O)C2CN(c3nc4ccccc4s3)C2)s1 : 700
4) Cc1ccc(C)c(N2C(=O)CN(S(C)(=O)=O)CC2(C)C(=O)NCc2ccc(F)cc2)c1 (stereo not given) : 840
5) CCCCc1ccc(NC(=O)N2CCC3(C2)c2nc[nH]c2CCN3C)cc1 (stereo not given) : 565
6) CCn1cc(C(=O)Nc2ccccc2F)c2cccnc21 : 812

Quick one: give me RP-LC retention time for each item below, same order please.
1. Cc1scc2nc(C3CCC3)nc(N3CCC(C(=O)N4CCN(c5ccccn5)CC4)CC3)c12
2. Cc1ccc(NC(=O)Cc2nnc(-c3cnccn3)o2)cc1F
3. CC(C)NC(=O)Cc1cn2cc(Br)ccc2n1

1. 587
2. 714
3. 556

Record RP-LC retention time per entry; entries follow.
1. COc1ccc(N2CC(c3noc(-c4cccc(Cl)c4)n3)CC2=O)cc1OC (stereo not given)
2. Cc1nnc(C2CC3(CCN(Cc4ccccc4)CC3)CN2Cc2ccccc2)o1 (stereo not given)
3. COc1ccc(-c2ccc(=O)n(Cc3nc(-c4cccc(Cl)c4)no3)n2)cc1

1. 944
2. 636
3. 1080

Take each entry in turn and give its RP-LC retention time.
1. CCCNC(=O)c1cc2sc(CC)cc2n1C
2. Cn1c(=O)sc2cc(S(=O)(=O)N3CCC(C(=O)N4CCCC4)CC3)ccc21
3. Cc1ccc2c(c1)N(C(=O)C1CCN(S(=O)(=O)c3cccnc3)CC1)CCO2

1. 951
2. 702
3. 823

Look at each compound and report its RP-LC retention time.
1. CCC(C)NC(=O)N1CCN(Cc2nc3cc(C(=O)N(C)C)ccc3n2C)CC1 (stereo not given)
2. CCCN(C)c1nccnc1OC1CCN(C(=O)C(CC)CC)C1 (stereo not given)
3. CCn1cc(-c2nc(-c3ccccn3)no2)c(=O)c2cc(F)c(N3CCOCC3)cc21
4. O=C(c1ccc(Br)o1)N1CCN(c2nc3ccccc3nc2C(F)(F)F)CC1
5. Cc1ccc(O)c(NC(=O)c2nc3nc(C)cc(C(F)F)n3n2)c1

1: 586; 2: 842; 3: 744; 4: 1140; 5: 762
